yeast fitness listing for selected variants.
B1: tRNA (parent)
chain: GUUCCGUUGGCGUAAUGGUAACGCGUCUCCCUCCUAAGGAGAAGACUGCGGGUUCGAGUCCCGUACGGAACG

- Variants of: B1
- Protocol notes: yeast fitness relative to wild type (ratio to wild type); higher = fitter; tRNA-Arg(CCU), competitive growth, 37 C, YPD
Variants at the floor of the assay were thinned out.
Endpoint label: yeast fitness

1) A15C C27G G39C U47A : 0.689
2) G10C A20G C24U G38C G56C : 0.561
3) C29U A37C : 0.894
4) U28A C66U : 0.796
5) C33A G39C G41C G44C A69C : 0.577
6) U19C C22U G25C C27G A40C : 0.587
7) C30A C62G A70U : 0.547
8) C4G G17C C33A G56C A70C : 0.542
9) A14G C27G C30U C31G : 0.76
10) A14G C24A C31U A40U A70G : 0.571
11) C5G C34A A36U G51C G56A : 0.797
12) G10C A40G : 0.588
13) G52A G67A : 0.831
14) G9A U19G A37C A43U C46G : 0.581
15) G9C C66G : 0.547
16) U35C G68A : 0.67
17) U8G G48A : 0.531
18) C31G C34U : 0.626
19) G6A C11A A37G G68C : 0.562
20) G58A C66U : 0.981
21) A15U A36G C55G : 0.565
22) G50C C55A A57C : 0.559
23) U2A C55A : 0.714
24) C22U U54C : 0.724
25) G9C C24U U26G : 0.51
26) C11U G67A A69U : 0.652
27) U8G G41A : 0.642
28) A36U A57C C62U : 0.627
29) C30G C31U C61G : 0.557
30) G10A C31U : 0.662
31) A14U C24G : 0.657
32) C46U C55A : 0.587
33) A65G A70U : 0.943
34) U59A A65G : 1.11
35) C30U C31G : 0.79
36) A14C A45U A70G : 0.561
37) C30G C46A A70G : 0.591
38) C30A C31U C60G : 0.565
39) G6A G67U : 0.814
40) G18A G67U : 0.75
41) A20C A42C A69U : 0.576
42) U19C A43G G44C A45C C66U : 0.589
43) G18A G50C C55G C62A : 0.561
44) U13A U28G G50C A57U C62A : 0.931
45) C34A A40C U54C C66U : 0.623
46) U26A C29U C31U G48A : 0.596
47) C22G C24G U47C : 0.642
48) U19C U32A G67A : 0.65
49) U3C G25A C29U : 0.681
50) A15C C49G : 0.652
51) G44A U54C : 0.723
